Tested on: NCI-H2122
test summary: Proliferation inhibition, CellTiter-Glo
Format: cell-based, human
details: Homo sapiens, NCI-H2122, 72 h; Table D-2; 3 days; read-out: NCI-H2122 Prolif. EC50
Procedure: All cancer cell lines (A375, A101D, A2058, RKO, HT29 SK-MEL 30, IPC298, HepG2, HCT-116, Lovo, SW620, SW480, NCI-H358, NCI-H2122, Calu-6, NCIH2087, NCIH1755, NCIH1666 and Mewo) were obtained from ATCC and cultured in RPMI-1640 medium (Gibco) supplemented with 5% heat inactivated fetal bovine serum (FBS, Wisent) at 37° C. under 5% CO2. […] The effect of each compound dilution on the proliferation of cancer cell lines was expressed in % inhibition and calculated as follows. […]
observation type: EC50

| compound | EC50 |
| --- | --- |
| Cc1c(F)cccc1S(=O)(=O)Nc1ccc(F)c(Nc2ncnc3cnc(-n4cnc5c(-c6cccnc6)cccc54)nc23)c1F | > 3 µM |

Next up:
Given the compound Cc1ccc2c(Nc3cccc(Cl)c3F)nccc2c1NC(=O)c1csc2c(N)ncnc12 [Belvarafenib, reference compound] and test system NCI-H2122, the measured EC50 is 0.3 to 3 µM

* * *

subject of test: BRAF (Homo sapiens, UniProt P15056)
Construct: GST; purchased Millipore Sigma B4062-10UG
Sequence (P15056 whole entry): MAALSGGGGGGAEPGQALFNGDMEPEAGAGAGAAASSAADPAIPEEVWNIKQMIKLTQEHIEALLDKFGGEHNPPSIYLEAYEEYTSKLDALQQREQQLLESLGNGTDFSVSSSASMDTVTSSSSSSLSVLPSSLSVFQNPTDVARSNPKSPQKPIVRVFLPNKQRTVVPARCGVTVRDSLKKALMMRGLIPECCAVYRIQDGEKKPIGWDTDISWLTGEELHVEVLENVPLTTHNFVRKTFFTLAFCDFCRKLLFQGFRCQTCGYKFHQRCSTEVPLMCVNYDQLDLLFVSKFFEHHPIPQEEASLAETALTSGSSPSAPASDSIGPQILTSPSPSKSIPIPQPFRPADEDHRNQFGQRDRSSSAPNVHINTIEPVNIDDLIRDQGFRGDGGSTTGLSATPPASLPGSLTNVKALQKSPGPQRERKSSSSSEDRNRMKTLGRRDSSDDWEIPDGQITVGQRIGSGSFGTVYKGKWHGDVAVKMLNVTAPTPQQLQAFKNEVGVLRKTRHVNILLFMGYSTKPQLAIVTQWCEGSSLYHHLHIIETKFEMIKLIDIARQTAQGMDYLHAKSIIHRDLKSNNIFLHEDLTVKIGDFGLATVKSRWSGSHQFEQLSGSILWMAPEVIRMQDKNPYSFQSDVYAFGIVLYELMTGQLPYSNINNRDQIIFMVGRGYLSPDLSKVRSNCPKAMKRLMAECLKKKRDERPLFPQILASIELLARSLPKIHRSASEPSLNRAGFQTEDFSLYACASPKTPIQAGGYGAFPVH
test summary: BRAF kinase activity assay (ADP-Glo)
Type: biochemical
details: Table 3
observation type: IC50

Illustrative cases are given below, each with its answer.
| compound structure | IC50 |
| --- | --- |
| Cc1c(F)cccc1S(=O)(=O)Nc1ccc(F)c(Nc2ncnc3cnc(-n4cc(C(=O)N5CCN(C)CC5)c5ccccc54)nc23)c1F | < 1 nM |
| CC1(O)CCN(c2cccc3c2ncn3-c2ncc3ncnc(Nc4c(F)ccc(NS(=O)(=O)c5cccc(Cl)c5Cl)c4F)c3n2)CC1 | 1 to 10 nM |
| CCS(=O)(=O)c1cn(-c2ncc3ncnc(Nc4c(F)ccc(NS(=O)(=O)c5cccc(Cl)c5Cl)c4F)c3n2)c2ccccc12 | 1 to 10 nM |
| Cc1c(F)cccc1S(=O)(=O)Nc1ccc(F)c(Nc2ncnc3cnc(-n4nnc5ccccc54)nc23)c1F | 1 to 10 nM |
| O=S(=O)(Nc1ccc(F)c(Nc2ncnc3cnc(-n4cnc5c(N6CCC7(CCCO7)CC6)cccc54)nc23)c1F)c1cccc(Cl)c1Cl | > 10 nM |

Form field IC50, entry Cc1c(F)cccc1S(=O)(=O)Nc1ccc(F)c(Nc2ncnc3cnc(-n4nc(C(=O)N(C)CCO)c5ccccc54)nc23)c1F : < 1 nM

* * *

Test system: HCT116 pERK
test summary: Phospho-ERK inhibition, AlphaLISA SureFire Ultra p-ERK 1/2
Type: cell-based, human
details: Table 3; lowest value of the pERK IC50 curve
observation type: HCT116 (Ymin %)
Report the value in % with no unit label.

Illustrative cases are given below, each with its answer.
| compound | unit label | recorded value |
| --- | --- | --- |
| O=S(=O)(Nc1ccc(F)c(Nc2ncnc3cnc(-n4cnc5ccccc54)nc23)c1F)c1cccc2c1OC(F)(F)O2 [Example 150] | % | −8 |
| COc1ccc(S(=O)(=O)Nc2ccc(F)c(Nc3ncnc4cnc(N5CC[C@H](F)C5)nc34)c2F)c(F)c1 [Example 44] | % | −2 |
| Cc1c(F)cccc1S(=O)(=O)Nc1ccc(F)c(Nc2ncnc3cnc(-n4cnc5ccccc54)nc23)c1F [Example 83] | % | −10 |
| COc1ccc(S(=O)(=O)Nc2ccc(F)c(Nc3ncnc4cnc(-n5cnc6ccccc65)nc34)c2F)c(C)c1Cl [Example 115] | % | 2 |
| Cc1c(F)cccc1S(=O)(=O)Nc1ccc(F)c(Nc2ncnc3cnc(-n4cc(S(=O)(=O)N(C)Cc5ccncc5)c5ccccc54)nc23)c1F [Example 113] | % | −7.0 |

Form field HCT116 (Ymin %), entry Cc1c(F)cccc1S(=O)(=O)Nc1ccc(F)c(Nc2ncnc3cnc(-n4cc(C(=O)N(C)CCO)c5ccccc54)nc23)c1F [Example 101] : 3.5

Form field HCT116 (Ymin %), entry Cc1c(F)cccc1S(=O)(=O)Nc1ccc(F)c(Nc2ncnc3cnc(-n4nc(C(=O)N5CCC(O)CC5)c5ccccc54)nc23)c1F [Example 108] : −7.0

Form field HCT116 (Ymin %), entry CN(C)C1CCN(c2cccc3c2ncn3-c2ncc3ncnc(Nc4c(F)ccc(NS(=O)(=O)c5cccc(Cl)c5Cl)c4F)c3n2)CC1 [Example 145] : −8

Form field HCT116 (Ymin %), entry O=S(=O)(Nc1ccc(F)c(Nc2ncnc3cnc(-n4nnc5c(N6CCN(CCO)CC6)cccc54)nc23)c1F)c1cccc(Cl)c1Cl [Example 139] : 2

Form field HCT116 (Ymin %), entry COc1ccc(S(=O)(=O)Nc2ccc(F)c(Nc3ncnc4cnc(Oc5cccc(C#N)c5)nc34)c2F)cc1 [Example 49] : 8

Form field HCT116 (Ymin %), entry O=S(=O)(Nc1ccc(F)c(Nc2ncnc3cnc(N4CC[C@H](F)C4)nc23)c1F)c1ccc2c(c1)CCO2 [Example 66] : 10

Form field HCT116 (Ymin %), entry COc1ccc(S(=O)(=O)Nc2ccc(F)c(Nc3ncnc4cnc(-n5cnc6c(N)cccc65)nc34)c2F)c(F)c1 [Example 79] : −6

Form field HCT116 (Ymin %), entry COc1ccc(S(=O)(=O)Nc2ccc(F)c(Nc3ncnc4cnc(N5CC(F)(F)C5)nc34)c2F)c(F)c1 [Example 50] : 8

Form field HCT116 (Ymin %), entry O=S(=O)(Nc1ccc(F)c(Nc2ncnc3cnc(-n4cnc5ccccc54)nc23)c1F)N1CCC(CCl)C1 (centres unmarked) [Example 75] : −10

The reported numbers originate from patent US20240239801A1.
